Consider the following molecules; for each one, report its IC50.
- ASSAY_SYSTEM: hSERT (Homo sapiens, UniProt P31645)
- Sequence (P31645 whole entry): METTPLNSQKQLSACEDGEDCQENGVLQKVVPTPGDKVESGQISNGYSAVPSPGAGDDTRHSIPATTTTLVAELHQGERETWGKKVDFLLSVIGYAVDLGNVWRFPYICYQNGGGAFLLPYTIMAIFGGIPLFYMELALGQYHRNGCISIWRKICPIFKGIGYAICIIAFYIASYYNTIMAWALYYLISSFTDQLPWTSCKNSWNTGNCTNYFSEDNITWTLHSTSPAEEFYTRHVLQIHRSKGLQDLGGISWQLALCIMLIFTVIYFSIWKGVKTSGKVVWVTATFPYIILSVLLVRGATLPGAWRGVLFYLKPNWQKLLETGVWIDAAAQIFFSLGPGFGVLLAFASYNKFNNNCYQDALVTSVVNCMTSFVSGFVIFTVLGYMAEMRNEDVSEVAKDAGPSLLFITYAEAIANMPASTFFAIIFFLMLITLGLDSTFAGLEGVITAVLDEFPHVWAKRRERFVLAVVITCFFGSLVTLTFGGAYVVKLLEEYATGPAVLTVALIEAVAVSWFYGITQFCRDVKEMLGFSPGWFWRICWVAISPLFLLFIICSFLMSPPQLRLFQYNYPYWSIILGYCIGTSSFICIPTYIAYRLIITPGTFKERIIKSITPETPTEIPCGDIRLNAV
- ASSAY_TEXT: hSERT neurotransmitter uptake assay (3H-5-HT), Assay 2
- Format: cell-based
- Parameters: expressed in transfected cells; host or cells: HEK-293
- MEASUREMENT_CONDITIONS: serotonin reuptake inhibition, 3H-5-HT uptake, HEK-293 hSERT cells (values without asterisk); read-out: SERT pIC50 (converted)

Field request: IC50 | item: Cc1ccc(O[C@@H](C2CC2)[C@H]2CCNC2)c(Cl)c1 [Example 16-23]
≤ 10 nM

Also Clc1cc(Cl)cc(O[C@H](C2CC2)[C@H]2CCNC2)c1 [Example 16-97] , if possible.
≤ 10 nM

Also COc1cc(Cl)ccc1O[C@@H](C(C)C)[C@H]1CCNC1 [Example 6-47] , if possible.
≤ 10 nM

Also Cc1cccc(O[C@H](C(C)C)[C@H]2CCNC2)c1C [Example 6-43] , if possible.
≤ 10 nM

Also CC(C)C[C@@H](Oc1ccc(Cl)c(Cl)c1)[C@H]1CCNC1 [Example 10-73] , if possible.
≤ 10 nM

Also CC(C)[C@H](Oc1c(Cl)ccc(Cl)c1Cl)[C@H]1CCNC1 [Example 6-35] , if possible.
≤ 10 nM

Also CC[C@H](Oc1cccc(Cl)c1C(F)(F)F)[C@H]1CCNC1 [Example 2-71] , if possible.
≤ 100 nM

Also Clc1ccc(O[C@@H](C2CC2)[C@H]2CCNC2)c(Cl)c1 [Example 16-19] , if possible.
≤ 10 nM

Also Cc1cc(Cl)ccc1O[C@@H](CC(C)C)[C@H]1CCNC1 [Example 10-47] , if possible.
≤ 10 nM

Also CCCC[C@@H](Oc1ccc(F)cc1)[C@H]1CCNC1 [Example 8-3] , if possible.
≤ 100 nM

Also C#CC(Oc1c(Cl)ccc(Cl)c1Cl)[C@H]1CCNC1 (some centres unmarked) [Example 26] , if possible.
≤ 100 nM

Also Fc1cccc(O[C@@H](C2CC2)[C@H]2CCNC2)c1Cl [Example 16-9] , if possible.
≤ 100 nM

Also Cc1c(Cl)cccc1O[C@@H](C(C)C)[C@H]1CCNC1 [Example 6-39] , if possible.
≤ 10 nM

Also CC(C)C[C@H](Oc1ccc(C(F)(F)F)cc1)[C@H]1CCNC1 [Example 10-16] , if possible.
≤ 10 nM

Also Cc1ccc(O[C@@H](C(C)C)[C@H]2CCNC2)c(Cl)c1 [Example 6-24] , if possible.
≤ 10 nM

Also CC[C@H](Oc1ccc(F)cc1OC)[C@H]1CCNC1 [Example 2-69] , if possible.
≤ 100 nM

Also CC(C)[C@H](Oc1cccc(F)c1Cl)[C@H]1CCNC1 [Example 6-17] , if possible.
≤ 10 nM

Also CCC[C@H](Oc1ccc(C)cc1Cl)[C@H]1CCNC1 [Example 4-37] , if possible.
≤ 10 nM

Also CC(C)C[C@@H](Oc1ccc(Cl)cc1Cl)[C@H]1CCNC1 [Example 10-44] , if possible.
≤ 10 nM

Also CC(C)[C@H](Oc1ccc(Cl)cc1Cl)[C@H]1CCNC1 [Example 6-21] , if possible.
≤ 10 nM

----------
- ASSAY_SYSTEM: hSERT (Homo sapiens)
- ASSAY_TEXT: hSERT neurotransmitter uptake assay (3H-5-HT), Assay 2
- Type: cell-based
- Design: expressed in transfected cells; host or cells: HEK-293
- MEASUREMENT_CONDITIONS: serotonin reuptake inhibition, 3H-5-HT uptake, HEK-293 hSERT cells (values without asterisk); read-out: SERT pIC50 (converted)
Consider the following compounds; for each one, report its IC50.

Recorded IC50 for CC[C@H](Oc1ccc(Cl)cc1C(F)(F)F)[C@H]1CCNC1 [Example 2-75] with hSERT (Homo sapiens), please?
≤ 100 nM

Also CCC[C@H](Oc1ccc(F)c(F)c1F)[C@H]1CCNC1 [Example 4-50] , if possible.
≤ 100 nM

Also COc1c(O[C@@H](C2CC2)[C@H]2CCNC2)ccc(Cl)c1Cl [Example 16-55] , if possible.
≤ 10 nM
